As shown below, each of these variants has a reported AIRE transcriptional activation functional score value.
B1: library; numbered along this chain (parent)
chain: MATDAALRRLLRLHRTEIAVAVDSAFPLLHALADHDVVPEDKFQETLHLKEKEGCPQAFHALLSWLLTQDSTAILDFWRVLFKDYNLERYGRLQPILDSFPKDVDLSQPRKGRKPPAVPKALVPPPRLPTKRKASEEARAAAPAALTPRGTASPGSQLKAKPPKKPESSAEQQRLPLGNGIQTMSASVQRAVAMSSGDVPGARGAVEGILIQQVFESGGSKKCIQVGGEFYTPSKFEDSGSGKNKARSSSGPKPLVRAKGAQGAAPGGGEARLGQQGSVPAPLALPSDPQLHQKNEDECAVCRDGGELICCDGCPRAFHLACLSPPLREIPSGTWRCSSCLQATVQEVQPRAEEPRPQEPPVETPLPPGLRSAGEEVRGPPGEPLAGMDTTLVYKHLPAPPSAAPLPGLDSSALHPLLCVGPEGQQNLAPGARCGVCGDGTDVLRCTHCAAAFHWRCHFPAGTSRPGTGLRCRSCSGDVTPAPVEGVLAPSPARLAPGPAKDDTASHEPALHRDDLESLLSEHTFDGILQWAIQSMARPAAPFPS

- Variants of: B1
- assay: AIRE transcriptional activation functional score (insulin promoter-GFP; nonsense median 0, synonymous median 1) (normalised score); higher = higher AIRE activity (more reporter activation)
- conditions_used: with insulin promoter-GFP reporter in HEK293
# output: bare number, no unit

Please review the following examples before continuing.
S187D    0.711
S491K    0.437
P355F    1
Q213M    -0.306
V443A    0.969
P101S    -0.303
E359V    1.08
S491Y    1.35

Fill in reported AIRE transcriptional activation functional score for this entry: K165A
-0.0692

Fill in reported AIRE transcriptional activation functional score for this entry: S506K
0.443

Fill in reported AIRE transcriptional activation functional score for this entry: A373D
1.02

Fill in reported AIRE transcriptional activation functional score for this entry: C299L
0.726

Fill in reported AIRE transcriptional activation functional score for this entry: L28C
-0.067
